System: LC4-1 (B-Lymphoblastic Leukemia)
Assay: combination Emax (second highest fraction inhibited in the dose matrix, 72 h); higher = more inhibition; extreme values may be limits of the assay
measurement type: combination Emax

Previously resolved entries follow.
| compound | test system | value reported |
| --- | --- | --- |
| Cc1cc2ncnn2cc1Nc1ncc2c(n1)n(C1CCOCC1)c(=O)n2C [AZD7648] + C[C@@H]1COCCN1C2=NC(=NC(=C2)C3(CC3)[S@](=N)(=O)C)C4=C5C=CNC5=NC=C4 [AZD6738] (first compound max 10 µM, 7x7, partner max 10 µM) | LC4-1 (B-Lymphoblastic Leukemia) | 0.937 |
| Cc1c2c(nn1C)CSCc1cc(n(C)n1)CSc1cc(c3ccccc3c1)OCCCc1c(C(=O)O)n(C)c3c-2c(Cl)ccc13 [AZD5991] + C[C@@H](Nc1cc(F)cc(F)c1)c1cc(C(=O)N(C)C)cc2c(=O)cc(N3CCOCC3)oc12 [AZD8186] (first compound max 1 µM, 7x7, partner max 3 µM) | LC4-1 (B-Lymphoblastic Leukemia) | 0.949 |

[Q] Please give the measured combination Emax for this compound: NC1(C(=O)N[C@@H](CCO)c2ccc(Cl)cc2)CCN(c2ncnc3[nH]ccc23)CC1 [Capivasertib] + C[C@@H]1COCCN1C2=NC(=NC(=C2)C3(CC3)[S@](=N)(=O)C)C4=C5C=CNC5=NC=C4 [AZD6738] (first compound max 10 µM, 7x7, partner max 10 µM)
[A] 0.949

[Q] Please give the measured combination Emax for this compound: O=C(c1cc(Cc2n[nH]c(=O)c3ccccc23)ccc1F)N1CCN(C(=O)C2CC2)CC1 [Olaparib] + CN(CC[C@H](CSC1=CC=CC=C1)NC2=C(C=C(C=C2)S(=O)(=O)NC(=O)C3=CC=C(C=C3)N4CCC(CC4)[C@H](C5=CC=CC=C5C6=CC=C(C=C6)Cl)O)S(=O)(=O)C(F)(F)F)CCO [AZD4320] (first compound max 10 µM, 7x7, partner max 1 µM)
[A] 1
